All values here come from ChEMBL document CHEMBL2074090.

Assay target: MRP3 (ABCC3, ATP-binding cassette sub-family C member 3) (Rattus norvegicus, UniProt O88563)
Sequence (O88563 whole entry): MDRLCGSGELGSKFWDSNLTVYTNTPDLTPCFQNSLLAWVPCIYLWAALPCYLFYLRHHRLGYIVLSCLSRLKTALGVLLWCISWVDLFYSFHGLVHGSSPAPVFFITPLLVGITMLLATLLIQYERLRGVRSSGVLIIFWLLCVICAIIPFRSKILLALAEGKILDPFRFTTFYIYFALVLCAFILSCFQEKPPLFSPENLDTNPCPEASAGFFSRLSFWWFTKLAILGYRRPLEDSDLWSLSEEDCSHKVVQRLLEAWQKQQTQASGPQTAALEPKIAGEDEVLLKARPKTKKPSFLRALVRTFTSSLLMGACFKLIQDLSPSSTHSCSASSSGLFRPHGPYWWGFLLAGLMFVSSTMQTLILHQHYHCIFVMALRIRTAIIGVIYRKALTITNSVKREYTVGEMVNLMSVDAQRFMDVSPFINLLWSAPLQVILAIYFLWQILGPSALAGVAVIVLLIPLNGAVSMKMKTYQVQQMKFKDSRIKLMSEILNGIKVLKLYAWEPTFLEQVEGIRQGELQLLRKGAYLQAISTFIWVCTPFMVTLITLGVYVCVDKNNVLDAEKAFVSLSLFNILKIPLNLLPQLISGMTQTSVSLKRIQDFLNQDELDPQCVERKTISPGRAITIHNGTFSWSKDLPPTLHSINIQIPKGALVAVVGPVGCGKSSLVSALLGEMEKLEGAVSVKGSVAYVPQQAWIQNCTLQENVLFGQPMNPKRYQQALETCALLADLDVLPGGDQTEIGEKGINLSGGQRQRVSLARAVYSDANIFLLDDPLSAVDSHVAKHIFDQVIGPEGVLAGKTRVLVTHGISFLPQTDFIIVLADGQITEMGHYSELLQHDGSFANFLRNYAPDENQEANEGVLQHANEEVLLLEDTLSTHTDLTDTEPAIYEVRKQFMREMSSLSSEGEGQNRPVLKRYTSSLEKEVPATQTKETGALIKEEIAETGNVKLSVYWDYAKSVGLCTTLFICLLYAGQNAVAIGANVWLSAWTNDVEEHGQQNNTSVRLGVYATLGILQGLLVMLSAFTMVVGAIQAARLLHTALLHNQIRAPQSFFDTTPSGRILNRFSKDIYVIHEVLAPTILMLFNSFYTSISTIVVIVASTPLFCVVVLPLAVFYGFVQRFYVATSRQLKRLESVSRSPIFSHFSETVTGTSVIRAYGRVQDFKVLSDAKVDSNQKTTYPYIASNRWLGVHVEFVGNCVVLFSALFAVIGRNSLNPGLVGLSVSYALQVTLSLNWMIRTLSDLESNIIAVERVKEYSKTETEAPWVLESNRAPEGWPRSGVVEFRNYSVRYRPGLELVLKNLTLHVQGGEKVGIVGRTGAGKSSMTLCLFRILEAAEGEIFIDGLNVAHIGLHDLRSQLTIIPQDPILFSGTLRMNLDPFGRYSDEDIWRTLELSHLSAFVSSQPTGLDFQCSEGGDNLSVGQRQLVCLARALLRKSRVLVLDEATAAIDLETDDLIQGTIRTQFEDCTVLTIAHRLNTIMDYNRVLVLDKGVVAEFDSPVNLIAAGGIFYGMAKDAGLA
Assay details: TP_TRANSPORTER: inhibition of E217betaG uptake (E217betaG: 0.1 uM, LTC4: 2.5 uM) in membrane vesicle from Mrp3-expressing LLC-PK1 cells
Assay type: functional, cell membranes
Design: scale not given: the % may be the effect or the level left
Condition notes: pig, membrane vesicles from Mrp3-expressing LLC-PK1 cells, probe E217betaG; read-out: Activity
Property label: activity at 2.5 µM (%)
Give bare numbers, in %.

Given CCCCC/C=C\C\C=C/C=C/C=C/[C@@H](SC[C@@H](NC(=O)CC[C@H](N)C(=O)O)C(=O)NCC(=O)O)[C@@H](O)CCCC(=O)O , state its recorded activity at 2.5 µM.
57

###

Assay target: MRP3 (ABCC3, ATP-binding cassette sub-family C member 3) (Rattus norvegicus, UniProt O88563)
Assay details: TP_TRANSPORTER: inhibition of E217betaG uptake (E217betaG: 0.1 uM, alpha-naphthyl beta-D-glucuronide: 200 uM) in membrane vesicle from Mrp3-expressing LLC-PK1 cells
Type: functional, cell membranes
Parameters: scale not given: the % may be the effect or the level left
Condition notes: pig, membrane vesicles from Mrp3-expressing LLC-PK1 cells, probe E217betaG; read-out: Activity
Property label: activity at 200 µM (%)
Numbers only, in %.

Which activity at 200 µM is reported for this molecule? O=C(O)[C@H]1O[C@@H](Oc2cccc3ccccc23)[C@H](O)[C@@H](O)[C@@H]1O
23.6

###

Assay target: MRP3 (ABCC3, ATP-binding cassette sub-family C member 3) (Rattus norvegicus, UniProt O88563)
Assay details: TP_TRANSPORTER: inhibition of E217betaG uptake (E217betaG: 0.1 uM, DNP-SG: 500 uM) in membrane vesicles from MRP3-expressing LLC-PK1 cells
Assay type: functional, cell membranes, Membrane vesicle
Parameters: scale not given: the % may be the effect or the level left
Condition notes: pig, probe E217betaG, read-out: Activity
Property label: activity at 500 µM (%)
Answers are plain numbers, in %.

Fill blank: measured activity at 500 µM of the compound N[C@@H](CCC(=O)N[C@H](CSc1ccc([N+](=O)[O-])cc1[N+](=O)[O-])C(=O)NCC(=O)O)C(=O)O is ____.
14.4

###

Assay target: MRP3 (ABCC3, ATP-binding cassette sub-family C member 3) (Rattus norvegicus, UniProt O88563)
Assay details: TP_TRANSPORTER: inhibition of E217betaG uptake (E217betaG: 0.1 uM, 4-methylumbeliferone glucuronide: 500 uM) in membrane vesicle from Mrp3-expressing LLC-PK1 cells
Type: functional, cell membranes
Design: scale not given: the % may be the effect or the level left
Condition notes: pig, membrane vesicles from Mrp3-expressing LLC-PK1 cells, probe E217betaG; read-out: Activity
Property label: activity at 500 µM

I am curious: what activity at 500 µM value has been reported for O=C(O)[C@H]1O[C@@H](OCc2cc(=O)oc3cc(O)ccc23)[C@H](O)[C@@H](O)[C@@H]1O ?
14.1%

###

Assay target: MRP3 (ABCC3, ATP-binding cassette sub-family C member 3) (Rattus norvegicus, UniProt O88563)
Assay details: TP_TRANSPORTER: inhibition of E217betaG uptake (E217betaG: 0.1 uM, MTX: 1000 uM) in membrane vesicles from MRP3-expressing LLC-PK1 cells
Format: functional, cell membranes, Membrane vesicle
Design: scale not given: the % may be the effect or the level left
Condition notes: pig, probe E217betaG, read-out: Activity
Property label: activity at 1000 µM
Answer with the figure and its unit, nothing else.

For the compound CN(Cc1cnc2nc(N)nc(N)c2n1)c1ccc(C(=O)N[C@@H](CCC(=O)O)C(=O)O)cc1 [METHOTREXATE] , what activity at 1000 µM is on record?
10.7%
